Experiment: growth inhibition of DIPG glioma cells, dose response, cell-based, JHH-DIPG-1, MIPE4.0, CellTiter-Glo, qHTS (AID 1347062);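 as to AC50: cells exposed to compound for two days before readout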
Conditions Used: JHH-DIPG-1 viability, CellTiter-Glo ATP luminescence
Results filed as inconclusive are left out. Calls of active or inactive are those of the source. The limit is not given here; nearly all actives have AC50 up to about 27 µM.
Can you answer with just one of these options? TRUE for active, FALSE for inactive

Sample answers from the record:
{"Compound": "O=C(Nc1ccncc1)C(=O)c1cn(Cc2ccc(Cl)cc2)c2ccccc12", "Discrete Label": "TRUE"}
{"Compound": "N[C@@H](Cc1ccc(N(CCCl)CCCl)cc1)C(=O)O", "Discrete Label": "TRUE"}
{"Compound": "CC[C@@H](C(N)=O)N1CCCC1=O", "Discrete Label": "FALSE"}
{"Compound": "NCC1(CC(=O)O)CCCCC1", "Discrete Label": "FALSE"}
{"Compound": "C#CC1(O)CCC2C3CCC4=CC(=O)CCC4(C)C3CCC21C (configuration not stated)", "Discrete Label": "FALSE"}
{"Compound": "O=P1(N(CCCl)CCCl)NCCCO1 (configuration not stated)", "Discrete Label": "FALSE"}

Problem: Just curious, what result did COC1(CS(=O)c2ccccc2)CCN(CCc2c[nH]c3ccc(F)cc23)CC1 (configuration not stated) get here?
Solution: FALSE

Problem: Record lookup: outcome of this test for COc1ccc(C(CN(C)C)C2(O)CCCCC2)cc1 (configuration not stated) ?
Solution: FALSE

Problem: State the result this test recorded for "C[C@]12COC(=O)C[C@@H]1CC[C@@H]1[C@@H]2CC[C@@]2(C)[C@H]1CC[C@]2(C)O" .
Solution: FALSE

Problem: Give the logged outcome of this assay for the following compound: "O=C(Oc1ccc([N+](=O)[O-])cc1)N1CCN(Cc2cccc(Oc3ccccc3)c2)CC1"
Solution: FALSE

Problem: Recorded test outcome, item "O=S(=O)(F)Cc1ccccc1"
Solution: FALSE

Problem: Give the logged outcome of this assay for the following compound: "CC1(N2CCC(n3c([C@@H]4CCCNC4)nc4ccccc43)CC2)CCCCCCC1"
Solution: TRUE

From: PubChem BioAssay
